The measurements presented in this section are drawn from patent US20120264685A1.

Target: human GLP-1 receptor (human, UniProt P43220 24-463)
Test: cell-based or functional assay
Where no end group is shown, it is not given here. [ ]: non-standard residue; d: D form. αMePhe(2-F) = C[C@](N)(Cc1ccccc1F)C(=O)O; αMeBip(OMe) = alpha-methylated Bip(OMe); αMeD = C[C@](N)(CC(=O)O)C(=O)O; αMeP = C[C@@]1(C(=O)O)CCCN1; αMeAPPA = not defined here; αMeS = C[C@](N)(CO)C(=O)O; Aib = CC(C)(N)C(=O)O
For each record, write down the corresponding cAMP release, % activity with respect to control, at 10 µM.

Solved cases (2 shown):
Binder	Result
VH[αMeP]EGTFT[αMeS]D[αMeBip(OMe)][αMeAPPA] (not fully specified (C-terminus); printed as VH-(αMe-Pro)-EGTFT-(αMe-Ser)-D-(αMe-Bip(OMe))-(αMe-APPA); reading uncertain) [Seq. ID. No. 164]	97 % of control
VH[Aib]EGTFTS[αMeD][αMeBip(OMe)][αMeAPPA] (not fully specified (C-terminus); printed as VH-Aib-EGTFTS-(αMe-Asp)-(αMe-Bip(OMe))-(αMe-APPA); reading uncertain) [Seq. ID. No. 187]	99 % of control

Next item in the queue.
Entry VHAQGT[αMePhe(2-F)]T[αMeS]D[αMeBip(OMe)][αMeAPPA] (not fully specified (C-terminus); printed as VHAQGT-(αMe-2FPhe)-T-(αMe-Ser)-D-(αMe-Bip(OMe))-(αMe-APPA); reading uncertain) [Seq. ID. No. 166] has what cAMP release, % activity with respect to control, at 10 µM?
99 % of control
